# ASSAY_CONDITIONS: in n-butanol, 298.15 K
REPORTED_PROPERTY: solubility (mole fraction)

[[record]]
structure_as_smiles = "CC(=O)c1c(C)c([N+](=O)[O-])c(C(C)(C)C)c([N+](=O)[O-])c1C"
result_number = 0.00666


---

# ASSAY_CONDITIONS: in methanol, 273.15 K
REPORTED_PROPERTY: solubility (mole fraction)

[[record]]
structure_as_smiles = "CC(=O)c1c(C)c([N+](=O)[O-])c(C(C)(C)C)c([N+](=O)[O-])c1C"
reported_property = "solubility (mole fraction)"
result_number = 0.00108

